test system: T. cruzi Tulahuen LacZ strain, intracellular amastigote forms; assay: In vitro trypanocidal activity on intracellular amastigote forms (Tulahuen strain); format: cell-based, Trypanosoma cruzi; details: Trypanosoma cruzi, TULAHUEN, 72 h, read-out: EC50 trypanocidal activity, amastigote, Tulahuen strain, 72 h; Table 2
Item-by-item account of EC50
Note: unit µM is implicit; provide only the numeric part.

Cn1nc(C(C)(C)C)cc1C(=O)N[C@@H](Cc1ccccc1)C(=O)NC1(C#N)CC1 [Compound 9]; 71.8

--- query ---
Record summary for CC(C)C[C@H](NC(=O)c1ccnc2cc(Cl)ccc12)C(=O)NC1(C#N)CC1 [Compound 15] : reported EC50 = 64.7

----------
assay: Mammalian cytotoxicity assay (MTT); assay type: cell-based; conditions: rhesus monkey, LLCMK2 cells, S1 Table; maximum concentration used 250 µM; read-out: CC50
Readings of CC50 at 72 h for the listed compounds

Below are worked cases with known answers.
Cn1nc(C(C)(C)C)cc1C(=O)N[C@@H](Cc1cccc(Cl)c1)C(=O)NC1(C#N)CC1; > 100 µM
CC(C)CC(C#N)NC(=O)[C@H](Cc1ccccc1)NC(=O)c1cc(C(C)(C)C)nn1C (stereo in doubt); 132 µM
N#CC1(NC(=O)[C@H](Cc2ccccc2)NC(=O)c2ccnc3cc(Cl)ccc23)CC1; > 100 µM
C[C@@H](OCc1ccccc1)[C@@H](C#N)NC(=O)[C@H](Cc1ccccc1)NC(=O)c1cc(C(C)(C)C)nn1C; > 100 µM

Okay, next one:
Input N#CC1(NC(=O)[C@H](Cc2cccc(Cl)c2)NC(=O)c2ccccc2)CC1 . Output CC50 at 72 h: 4 µM

----------
assay: Mammalian cytotoxicity assay (MTT); type: cell-based; conditions: rhesus monkey, LLCMK2 cells, LLCMK2, 72 h, MTT; Table 2; read-out: CC50 cytotoxicity;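 further: Read-out is absorbance at 570 nm of formazan taken up in DMSO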
metricName: CC50 at 72 h

C[C@H](OCc1ccccc1)[C@H](C#N)NC(=O)[C@H](Cc1ccccc1)NC(=O)c1cc(C(C)(C)C)nn1C; ~125 µM
CC(C)C[C@H](NC(=O)c1ccnc2cc(Cl)ccc12)C(=O)NC1(C#N)CC1; 73.6 µM
C[C@@H](O)[C@@H](C#N)NC(=O)[C@H](Cc1cccc(Cl)c1)NC(=O)c1cc(C(C)(C)C)nn1C; > 100 µM

Next:
For record Cn1nc(C(C)(C)C)cc1C(=O)N[C@@H](Cc1ccccc1)C(=O)NC1(C#N)CC1 the listed CC50 at 72 h is > 100 µM

----------
Listed next: entries and their corresponding remaining activity at 10 µM.
Biological target: Leishmania mexicana CPB (LmCPB) (Leishmania mexicana, UniProt P36400)
Sequence (P36400 126-443): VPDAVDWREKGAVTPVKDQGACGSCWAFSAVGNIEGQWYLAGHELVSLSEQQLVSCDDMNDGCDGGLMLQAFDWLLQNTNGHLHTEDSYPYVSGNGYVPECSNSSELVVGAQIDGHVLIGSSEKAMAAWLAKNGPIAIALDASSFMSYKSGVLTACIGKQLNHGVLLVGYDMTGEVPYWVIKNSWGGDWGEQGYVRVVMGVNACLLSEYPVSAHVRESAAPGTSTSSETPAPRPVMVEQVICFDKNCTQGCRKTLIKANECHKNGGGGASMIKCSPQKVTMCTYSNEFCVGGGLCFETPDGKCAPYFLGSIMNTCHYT
Assay: LmCPB enzyme inhibition
Type: biochemical
Conditions: 10 μM; replicates = 2
Procedure: Enzyme inhibition studies for Cz and LmCPB were performed as previously described for Cz. The experimental procedures are described in the Supporting Information (see chapter S3). Cathepsins B, L, S were assayed as reported.
Answer format: numeric, % implied, no suffix.

Please review the entries below; each comes with its answer.
CC(C)C[C@H](NC(=O)c1cc(C(C)(C)C)nn1C)C(=O)N[C@@H](C#N)[C@H](C)O [Compound 68]; 54
C[C@@H](O)[C@H](NC(=O)c1cc(C(C)(C)C)nn1C)C(=O)NC1(C#N)CC1 [Compound 19]; 67
C[C@@H](O)[C@@H](C#N)NC(=O)[C@H](Cc1ccccc1)NC(=O)c1cc(C(C)(C)C)nn1C [Compound 65]; 69
C[C@H](OCc1ccccc1)[C@H](C#N)NC(=O)[C@H](Cc1ccccc1)NC(=O)c1cc(C(C)(C)C)nn1C [Compound 57]; 72

Turning now to a further record.
Known value: Leishmania mexicana CPB (LmCPB) (Leishmania mexicana, UniProt P36400) remaining activity at 10 µM of the compound CC(C)C[C@H](NC(=O)c1cc(C(C)(C)C)nn1C)C(=O)N[C@@H](C#N)[C@H](C)OCc1ccccc1 [Compound 59] equals 75
